Values were extracted from the supplement of paper PMC10567573.

B1: SASS6 (parent)
chain: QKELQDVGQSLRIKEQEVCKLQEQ

- Variants of: B1
- experimentNotes: protein stability index of a GFP-peptide fusion (GPS, HEK-293T) (PSI 1-6); higher = more stable;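 further: lentivirally expressed fusions sorted by FACS into six bins by GFP to DsRed ratio, PSI derived from sequencing read proportions per bin multiplied by bin number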
- settings: c terminus: a fixed tail appended
measurementKind: protein stability index

- seq: "QKELQDVGQSLRIKEQPVCKLQEQ [E17P]"
  measurementKind: "protein stability index"
  endpointValue: 4.55
- seq: "QKELQDVEQSLRIKEQEVCKLQEQ [G8E]"
  measurementKind: "protein stability index"
  endpointValue: 5.38
- seq: "QKELQDVGQSLRIKEQEVYKLQEQ [C19Y]"
  measurementKind: "protein stability index"
  endpointValue: 5.19
- seq: "QKELQDVGQSLRIKEQNVCKLQEQ [E17N]"
  measurementKind: "protein stability index"
  endpointValue: 4.33
- seq: "QKELQDVGQSKRIKEQEVCKLQEQ [L11K]"
  measurementKind: "protein stability index"
  endpointValue: 5.12
- seq: "QKELQDVGQSLRIKENEVCKLQEQ [Q16N]"
  measurementKind: "protein stability index"
  endpointValue: 5.13
- seq: "QKELQDNGQSLRIKEQEVCKLQEQ [V7N]"
  measurementKind: "protein stability index"
  endpointValue: 4.92
- seq: "QKELQDVGESLRIKEQEVCKLQEQ [Q9E]"
  measurementKind: "protein stability index"
  endpointValue: 4.49
- seq: "QKELQDVFQSLRIKEQEVCKLQEQ [G8F]"
  measurementKind: "protein stability index"
  endpointValue: 4.07
- seq: "QKELQDVGQQLRIKEQEVCKLQEQ [S10Q]"
  measurementKind: "protein stability index"
  endpointValue: 5.31
- seq: "VKELQDVGQSLRIKEQEVCKLQEQ [Q1V]"
  measurementKind: "protein stability index"
  endpointValue: 4.88
